- Tested System: T1, human PD-1 extracellular domain fused with mouse Fc (PD-1-mFc) (human, UniProt Q15116 25-170)
- T1 construct: extracellular domain; not used because of the label; also called hPD-1-mFc; human PD-1-mouse Fc fusion protein
- T1 sequence (Q15116 25-170): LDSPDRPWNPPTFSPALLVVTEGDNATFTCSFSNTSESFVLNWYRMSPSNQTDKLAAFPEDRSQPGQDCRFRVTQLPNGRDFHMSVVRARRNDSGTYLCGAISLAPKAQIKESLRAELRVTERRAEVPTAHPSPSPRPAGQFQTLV
- Assay Text: blockage ELISA, coated PD-1-mFc, competitor PDL-1-mFc-biotin
Measure Name: IC50

(Q) Entry 5A8 murine anti-PD-1 antibody (antibody, V domains shown, Purified hybridoma antibody; also called 5A8-mIgG1) VH: QVQLQQSGDELVRPGTSVKMSCKAAGYTFTNNWIGWVKQRPGHGLEWIGDFYPGGGYTNYNEKFKGKATLTADTSSSTAYMQLSSLTSEDSAIYYCARGYGTNYWYFDVWGAGTTVTVSS VL: NIVMTQTPKILFISAGDRVTITCKASQSVSNDVAWYQQKPGQSPKLLIYYAFTRYIGVPDRFTGSGYGTDFTFTISTVQAEDLAVYFCQQDYSSPYTFGGGTKLEIKR : reported IC50 = ?
(A) 1.13 µg/mL

Reference source for all entries: patent US20170267762A1
